Target: T1, human FGFR3b expressed with a C-terminal myc-myc-hexahistidine tag (hFGFR3b.mmH) (human)
T1 construct: also called REGN3152; monomeric human FGFR3b
T1 chain: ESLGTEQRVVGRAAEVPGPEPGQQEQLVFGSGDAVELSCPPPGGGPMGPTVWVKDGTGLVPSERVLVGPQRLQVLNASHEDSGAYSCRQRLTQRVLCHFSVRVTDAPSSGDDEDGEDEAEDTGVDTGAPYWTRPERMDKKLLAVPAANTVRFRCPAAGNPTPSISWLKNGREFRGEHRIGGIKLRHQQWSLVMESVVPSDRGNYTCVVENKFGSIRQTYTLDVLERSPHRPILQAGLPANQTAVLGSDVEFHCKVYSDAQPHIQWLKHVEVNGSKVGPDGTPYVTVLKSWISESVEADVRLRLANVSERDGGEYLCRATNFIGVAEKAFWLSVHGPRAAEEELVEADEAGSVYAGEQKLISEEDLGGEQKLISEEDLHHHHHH
Assay: SPR Biacore, mAb captured on anti-hFc, 25C
Metric name: t½
Answer with the figure and its unit, nothing else.

So for REGN6331 (antibody, human IgG1, kappa, V domains shown, hIgG1 comparator; also called COMP6331; anti-FGFR3-hIgG1 comparator) VH: EVQLVESGGGLVQPGGSLRLSCAASGFTFTSTGISWVRQAPGKGLEWVGRIYPTSGSTNYADSVKGRFTISADTSKNTAYLQMNSLRAEDTAVYYCARTYGIYDLYVDYTEYVMDYWGQGTLVTVSS VL: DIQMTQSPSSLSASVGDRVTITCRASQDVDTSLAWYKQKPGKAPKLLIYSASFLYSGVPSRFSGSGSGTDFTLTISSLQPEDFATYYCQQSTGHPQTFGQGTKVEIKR , the logged t½ turned out to be 0.313 h

Form field t½, entry H4H30071P (antibody, human IgG4 S228P, kappa, V domains shown, HCVR 42, LCVR 50) VH: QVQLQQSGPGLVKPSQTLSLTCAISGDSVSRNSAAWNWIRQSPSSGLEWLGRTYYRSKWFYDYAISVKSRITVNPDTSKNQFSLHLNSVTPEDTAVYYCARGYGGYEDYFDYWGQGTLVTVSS VL: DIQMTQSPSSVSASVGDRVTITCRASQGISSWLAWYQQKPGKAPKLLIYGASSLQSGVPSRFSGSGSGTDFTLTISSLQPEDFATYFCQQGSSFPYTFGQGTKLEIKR : 6.51 h

Reported t½ ( H4H30076P (antibody, human IgG4 S228P, kappa, V domains shown) VH: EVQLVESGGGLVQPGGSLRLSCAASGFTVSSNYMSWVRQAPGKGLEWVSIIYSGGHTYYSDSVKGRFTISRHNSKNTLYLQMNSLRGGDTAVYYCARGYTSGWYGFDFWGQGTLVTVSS VL: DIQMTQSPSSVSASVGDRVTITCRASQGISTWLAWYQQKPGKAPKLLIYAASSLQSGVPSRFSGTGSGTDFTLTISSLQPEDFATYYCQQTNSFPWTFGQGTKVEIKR ) = 4.39 h

t½ reading for H4H30061P (antibody, human IgG4 S228P, kappa, V domains shown) VH: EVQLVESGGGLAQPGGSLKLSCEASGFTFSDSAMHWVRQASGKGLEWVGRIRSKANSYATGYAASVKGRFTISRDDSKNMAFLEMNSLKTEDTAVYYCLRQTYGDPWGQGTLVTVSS VL: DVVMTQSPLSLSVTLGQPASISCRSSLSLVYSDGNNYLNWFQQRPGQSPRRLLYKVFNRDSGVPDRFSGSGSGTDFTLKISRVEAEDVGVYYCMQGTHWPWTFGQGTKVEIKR : 2.2 h

For reference, reported t½ for H4H30045P (antibody, human IgG4 S228P, kappa, V domains shown, HCVR 179, LCVR 187) VH: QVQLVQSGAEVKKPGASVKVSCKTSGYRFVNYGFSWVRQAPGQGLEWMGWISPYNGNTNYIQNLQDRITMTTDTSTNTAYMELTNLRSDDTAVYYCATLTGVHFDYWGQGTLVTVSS VL: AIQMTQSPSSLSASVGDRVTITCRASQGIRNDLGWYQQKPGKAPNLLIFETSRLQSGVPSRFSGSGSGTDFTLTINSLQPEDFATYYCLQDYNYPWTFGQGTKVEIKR stands at 0.0317 h

Looking up H4H30063P (antibody, human IgG4 S228P, kappa, V domains shown, HCVR 2, LCVR 10; also called REGN15684) VH: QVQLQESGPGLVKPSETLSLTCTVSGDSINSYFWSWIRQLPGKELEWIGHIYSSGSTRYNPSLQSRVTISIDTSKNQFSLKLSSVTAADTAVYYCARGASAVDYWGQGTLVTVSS VL: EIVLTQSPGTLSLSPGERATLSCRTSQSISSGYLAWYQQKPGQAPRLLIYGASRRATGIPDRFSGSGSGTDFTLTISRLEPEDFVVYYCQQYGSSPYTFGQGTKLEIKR , I found its t½ recorded as 5.03 h
